- Tested on: HeLa S3 cells
- Experiment: Test for growth inhibition of HeLa S3 cells
- Format: cell-based
- Test Settings: Homo sapiens, HeLa S3, 72 h, HeLa S3 cells, 72 hours with test compound, Cell Proliferation Kit II; read-out: Cell growth inhibition (IC50)
Observation Type: IC50
Show the value, then the unit it is measured in.

Example results:
COCCCN(CCSc1ccc(O)cc1)CCSc1ccc(O)cc1; 1.74 µM
O=C(CN(CCSc1ccc(O)cc1)CCSc1ccc(O)cc1)Nc1nccs1; 2.82 µM
Oc1ccc(SCCOCOCCSc2ccc(O)cc2)cc1; 3.7 µM

Request: Please tell me: IC50 of Oc1ccc(SCCN(CCSc2ccc(O)cc2)CC2OCCO2)cc1 , system HeLa S3 cells?
Result: 3.22 µM

Request: For the record NC(=O)[C@H]1OC(N(CCSc2ccc(O)cc2)CCSc2ccc(O)cc2)[C@H](O)[C@@H](O)[C@@H]1O (stereo partly drawn) , what value of IC50 is listed for HeLa S3 cells?
Result: 25.2 µM

Request: So what IC50 did Oc1ccc(SCCOCCOCCSc2ccc(O)cc2)cc1 get with HeLa S3 cells?
Result: 5.17 µM

====

- Tested on: HeLa S3 cells
- Experiment: Test for growth inhibition of HeLa S3 cells
- Type: cell-based
- Test Settings: Homo sapiens, HeLa S3, 72 h, HeLa S3 cells, 72 hours with test compound, Cell Proliferation Kit II; read-out: Cell growth inhibition (IC50)
The entries below are paired with their reported IC50.
Give the figure together with its unit, number first.

Consider the reported IC50 for these compounds:
COCCN(CCSc1ccc(O)cc1)CCSc1ccc(O)cc1 [Compound 104]; 1.74 µM
O=C(c1ccncc1)N(CCSc1ccc(O)cc1)CCSc1ccc(O)cc1 [Compound 117]; 2.72 µM
Oc1ccc(SCC(O)CSc2ccc(O)cc2)cc1 [Compound 156]; 5.45 µM
Oc1ccc(SCCN(CCSc2ccc(O)cc2)Cc2c[nH]cn2)cc1 [Compound 196]; 7.08 µM
Oc1ccc(SSc2ccc(O)cc2)cc1 [Compound 131]; 128 µM

Request: Item CC(=O)NCCN(CCSc1ccc(O)cc1)CCSc1ccc(O)cc1 [Compound 83] has what recorded IC50?
Result: 5.17 µM

Request: # get_value(readout='IC50', item= OCCOCCN(CCSc1ccc(O)cc1)CCSc1ccc(O)cc1 [Compound 199] )
Result: 5.14 µM

Request: Which measured IC50 value corresponds to CC(=O)Oc1ccc(SCCN(CCSc2ccc(OC(C)=O)cc2)CC(N)=O)cc1 [Compound 193] ?
Result: 0.36 µM

Request: Any idea what IC50 was measured for CCN(CCSc1ccc(O)cc1)CCSc1ccc(O)cc1 [Compound 71] ?
Result: 3.94 µM

Request: Item O=C(N1CCCCC1)N(CCSc1ccc(O)cc1)CCSc1ccc(O)cc1 [Compound 125] has what recorded IC50?
Result: 4.55 µM

====

- Tested on: HeLa S3 cells
- Experiment: Test for growth inhibition of HeLa S3 cells
- Type: cell-based
- Test Settings: Homo sapiens, HeLa S3, 72 h, HeLa S3 cells, 72 hours with test compound, Cell Proliferation Kit II; read-out: Cell growth inhibition (IC50)
Observation Type: IC50 (µM)
Quick reminder: number only, in µM, skip the unit.

Request: What value of IC50 has been recorded for this entry: Oc1ccc(CN(CCSc2ccc(O)cc2)CCSc2ccc(O)cc2)cc1
Result: 4

Request: Requested field: IC50. Item: Oc1ccc(SCCN(CCSc2ccc(O)cc2)CC2CC2)cc1
Result: 3.56

Request: // returns reported IC50 for input Oc1ccc(SCCCCCSc2ccc(O)cc2)cc1
Result: 9.14

====

- System: HeLa S3 cells
- Experiment: Test for growth inhibition of HeLa S3 cells
- Assay type: cell-based
- Test Settings: Homo sapiens, HeLa S3, 72 h, read-out: Cell growth inhibition (IC50, μM)
Observation Type: IC50

Request: What value of measured IC50 is listed for Oc1ccc(SCCOCCSc2ccc(O)cc2)cc1 [Compound 27] ?
Result: 1.53 µM

====

- System Under Test: human RNR (purified R1 and R2 subunits) (Homo sapiens, UniProt P23921+P31350)
- Experiment: In vitro measurement of human RNR inhibitory activity (conversion of CDP to dCDP, HPLC)
- Test Settings: 100 μM CDP, 37° C., 30 minutes, read-out: RNR Inhibition (IC50)
Items are presented alongside their recorded IC50.

CN(C)C(=O)CCN(CCSc1ccc(O)cc1)CCSc1ccc(O)cc1 [Compound 79]; 1.37 µM
Oc1ccc(SCC#CCSc2ccc(O)cc2)cc1 [Compound 160]; 0.95 µM

Request: // lookup IC50 | system=human RNR (purified R1 and R2 subunits) (Homo sapiens, UniProt P23921+P31350) | key= Oc1ccc(SCC(O)COCCOCC(O)CSc2ccc(O)cc2)cc1 (stereo not shown) [Compound 166]
Result: 3.09 µM

Request: Form field - read-out: IC50; system: human RNR (purified R1 and R2 subunits) (Homo sapiens, UniProt P23921+P31350); submitted item: Oc1ccc(SCCOCOCCSc2ccc(O)cc2)cc1 [Compound 162]
Result: 1.7 µM

Request: Find IC50 (human RNR (purified R1 and R2 subunits) (Homo sapiens, UniProt P23921+P31350)) for the entry Oc1ccc(SCCN(CCSc2ccc(O)cc2)CC2OCCO2)cc1 [Compound 88]
Result: 1.79 µM

Request: What IC50 appears in the records for this compound with human RNR (purified R1 and R2 subunits) (Homo sapiens, UniProt P23921+P31350)? O=C(NCCCSc1ccc(O)cc1)C1(C(=O)NCCCSc2ccc(O)cc2)CCCC1 [Compound 192]
Result: 2.85 µM

Request: GET /values?readout=IC50&system=human RNR (purified R1 and R2 subunits) (Homo sapiens, UniProt P23921+P31350)&item= O=C(CSc1ccc(O)cc1)C(=O)CSc1ccc(O)cc1 [Compound 186]
Result: 11.9 µM

Request: What is its IC50 for human RNR (purified R1 and R2 subunits) (Homo sapiens, UniProt P23921+P31350)? Entry: Oc1ccc(SCCN(CCSc2ccc(O)cc2)CC2CC2)cc1 [Compound 75]
Result: 1.66 µM

Request: Find the measured IC50: item Oc1ccc(SCCSc2ccc(O)cc2)cc1 [Compound 133] , target or system human RNR (purified R1 and R2 subunits) (Homo sapiens, UniProt P23921+P31350).
Result: 2.27 µM

Request: What reported IC50 corresponds to Oc1ccc(SCCCSc2ccc(O)cc2)cc1 [Compound 134] on human RNR (purified R1 and R2 subunits) (Homo sapiens, UniProt P23921+P31350)?
Result: 0.68 µM

Request: I'm curious: which IC50 was measured for NC(=O)CCN(CCSc1ccc(O)cc1)CCSc1ccc(O)cc1 [Compound 78] tested on human RNR (purified R1 and R2 subunits) (Homo sapiens, UniProt P23921+P31350)?
Result: 0.31 µM

Request: # query: IC50 | item OC[C@@H]1OC(N(CCSc2ccc(O)cc2)CCSc2ccc(O)cc2)[C@H](O)[C@H](O)[C@H]1O (stereo partly shown) [Compound 218] | system: human RNR (purified R1 and R2 subunits) (Homo sapiens, UniProt P23921+P31350)
Result: 4.97 µM

Request: Notebook: pull reported IC50 for human RNR (purified R1 and R2 subunits) (Homo sapiens, UniProt P23921+P31350), entry C#CCN(CCSc1ccc(O)cc1)CCSc1ccc(O)cc1 [Compound 73]
Result: 0.6 µM

Request: Write down the reported IC50 of OCCN(CCSc1ccc(O)cc1)CCSc1ccc(O)cc1 [Compound 102] , test system: human RNR (purified R1 and R2 subunits) (Homo sapiens, UniProt P23921+P31350).
Result: 0.69 µM

====

- System Under Test: human RNR (purified R1 and R2 subunits) (Homo sapiens, UniProt P23921+P31350)
- Construct: made in house; host or cells: Escherichia coli BL21(λDE3)pLysS, plasmids pETR1 and pETR2 (pET3a backbone)
- Sequence (P23921 1-792): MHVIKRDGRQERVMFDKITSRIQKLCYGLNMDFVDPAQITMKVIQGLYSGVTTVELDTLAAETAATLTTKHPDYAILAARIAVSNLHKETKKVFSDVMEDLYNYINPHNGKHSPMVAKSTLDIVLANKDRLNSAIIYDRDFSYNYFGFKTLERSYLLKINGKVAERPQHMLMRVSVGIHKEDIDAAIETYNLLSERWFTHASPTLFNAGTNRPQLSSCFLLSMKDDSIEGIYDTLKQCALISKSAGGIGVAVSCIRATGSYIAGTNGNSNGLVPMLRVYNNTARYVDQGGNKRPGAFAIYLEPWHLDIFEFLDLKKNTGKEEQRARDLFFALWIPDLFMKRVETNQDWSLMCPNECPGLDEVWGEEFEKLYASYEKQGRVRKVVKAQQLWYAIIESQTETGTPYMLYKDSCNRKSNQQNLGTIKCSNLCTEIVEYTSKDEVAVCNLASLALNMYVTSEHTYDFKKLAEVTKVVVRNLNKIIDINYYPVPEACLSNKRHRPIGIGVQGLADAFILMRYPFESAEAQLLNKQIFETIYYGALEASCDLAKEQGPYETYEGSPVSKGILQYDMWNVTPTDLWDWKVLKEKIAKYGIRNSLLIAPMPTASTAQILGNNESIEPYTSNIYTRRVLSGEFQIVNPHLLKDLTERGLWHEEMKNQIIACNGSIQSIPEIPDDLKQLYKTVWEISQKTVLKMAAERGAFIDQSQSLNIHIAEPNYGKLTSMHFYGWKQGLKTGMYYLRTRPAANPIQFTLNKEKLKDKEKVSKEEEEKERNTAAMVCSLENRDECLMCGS
- Sequence (P31350 1-389): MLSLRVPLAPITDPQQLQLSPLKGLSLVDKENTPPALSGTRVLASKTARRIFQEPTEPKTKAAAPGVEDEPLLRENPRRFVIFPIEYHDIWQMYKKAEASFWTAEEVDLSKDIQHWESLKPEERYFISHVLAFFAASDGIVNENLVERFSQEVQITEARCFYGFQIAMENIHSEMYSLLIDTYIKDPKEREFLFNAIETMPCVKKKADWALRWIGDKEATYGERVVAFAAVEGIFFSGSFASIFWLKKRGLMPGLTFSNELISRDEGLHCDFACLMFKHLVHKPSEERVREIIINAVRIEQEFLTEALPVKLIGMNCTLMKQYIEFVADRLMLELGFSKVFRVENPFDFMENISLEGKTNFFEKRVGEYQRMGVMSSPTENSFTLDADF
- Experiment: In vitro measurement of human RNR inhibitory activity (conversion of CDP to dCDP, HPLC)
- Format: biochemical
- Test Settings: 100 μM CDP, 37° C., 30 minutes, read-out: RNR Inhibition (IC50)
Reported IC50 values for a set of compounds
Reply with the number, then its unit.

Would you please look over these solved cases?
Oc1ccc(SCCN(CCSc2ccc(O)cc2)Cc2ccco2)cc1; 2030 nM
Oc1ccc(SCSc2ccc(O)cc2)cc1; 3500 nM
Oc1ccc(SCC(O)CSc2ccc(O)cc2)cc1; 2270 nM
O=C(CN(CCSc1ccc(O)cc1)CCSc1ccc(O)cc1)N(CCO)CCO; 3460 nM
COCCOCCOCCN(CCSc1ccc(O)cc1)CCSc1ccc(O)cc1; 3240 nM
Oc1ccc(SCCN(CCSc2ccc(O)cc2)Cc2c[nH]cn2)cc1; 1520 nM
Oc1ccc(SCc2ccccc2CSc2ccc(O)cc2)cc1; 1130 nM
Oc1ccc(SCCCCSc2ccc(O)cc2)cc1; 430 nM
O=C(c1ccccc1)N(CCSc1ccc(O)cc1)CCSc1ccc(O)cc1; 3440 nM
OCCCN(CCSc1ccc(O)cc1)CCSc1ccc(O)cc1; 880 nM

Request: Need IC50, item Oc1ccc(SCSCSc2ccc(O)cc2)cc1
Result: 1420 nM

Request: Endpoint output: IC50 of Oc1ccc(SCCCCCSc2ccc(O)cc2)cc1 . Value?
Result: 690 nM

Request: Param item = CC[N+](CC)(CC)CCCN(CCSc1ccc(O)cc1)CCSc1ccc(O)cc1 ; retrieve measured IC50.
Result: 2060 nM

Request: Tell me the measured IC50 of COCCN(CCSc1ccc(O)cc1)CCSc1ccc(O)cc1 , please.
Result: 2110 nM

Request: Reported IC50, compound N=C(N)N(CCSc1ccc(O)cc1)CCSc1ccc(O)cc1 : ____
Result: 5450 nM

Request: Fill blank: measured IC50 of the compound O=C(CCSc1ccc(O)cc1)N(CCSc1ccc(O)cc1)CCSc1ccc(O)cc1 is ____.
Result: 4380 nM

Request: Any idea what IC50 was measured for OC[C@@H]1OC(N(CCSc2ccc(O)cc2)CCSc2ccc(O)cc2)[C@@H](O)[C@H](O)[C@H]1O (stereo partly shown) ?
Result: 3630 nM
